The measured values listed here are drawn from a melting point compilation (Tetko et al.; mined from patent text by program, amines drawn as free bases though some values may be those of a salt).

Reported property: melting point

CCCCN(CCCC)CCCOc1ccc(C(=O)c2c(C)oc3c(NS(C)(=O)=O)cccc23)cc1 ... 135 °C

-- ask Form field: reported melting point of CCCc1cc(=O)n(-c2cc(C(=O)OC(C)C)c(Cl)cc2F)c(=O)[nH]1
-- reply 192 to 193 °C

-- ask Form field: reported melting point of COC(=O)CCCc1cc2nc(Cl)ccc2n1S(=O)(=O)c1ccc(OC)cc1Cl
-- reply 116 to 118 °C

-- ask Form field: reported melting point of CCOC(=O)Cc1nc(-c2ccc(F)cc2)oc1C(C)C
-- reply 59 to 60 °C

###

Reported property: melting point

-- ask Form field: reported melting point of O=C1Cc2cccc(S(=O)c3ccc(Cl)cc3)c2N1 (configuration not stated)
-- reply 191 to 194 °C

-- ask Form field: reported melting point of COc1ccc(C2=NN(CC(=O)c3ccc(Cl)cc3)C(=O)[C@H]3CCCC[C@@H]23)cc1OC (relative stereo)
-- reply 142 to 144 °C

-- ask Form field: reported melting point of O=C(NC1CC1)C(Cl)Cl
-- reply 130 to 132 °C

-- ask Form field: reported melting point of COc1cc2c(cc1OC(C)=O)C(=O)CCC2
-- reply 118 to 120 °C

-- ask Form field: reported melting point of COC(=O)C1CCC2C3CCC4CC5OC5CC4(C)C3C(NC(=O)OCC(Cl)(Cl)Cl)CC12C (configuration not stated)
-- reply 153 to 155 °C

-- ask Form field: reported melting point of NC(=O)c1ccc(Br)c(OC(F)F)c1Br
-- reply 186 °C

-- ask Form field: reported melting point of CC(C)Cn1cnc2c(N)nc3ccc(OCc4ccccc4)cc3c21
-- reply 214 to 216 °C

-- ask Form field: reported melting point of O=[N+]([O-])c1ccc(-c2nnc3ccc(Cl)nn23)s1
-- reply 215 to 217 °C

-- ask Form field: reported melting point of CCCc1c(OCc2ccc(C(=O)OCC)c(OCC)c2)ccc(C(C)=O)c1O
-- reply 92 to 94 °C

-- ask Form field: reported melting point of O=C(COc1cc(-c2ccccc2)nc2ccccc12)N1CCOCC1
-- reply 145 °C

-- ask Form field: reported melting point of ClCCN(CCCl)CCOc1cccc2c(Cl)c3ccccc3nc12
-- reply 105 to 106 °C

-- ask Form field: reported melting point of O=c1[nH]c2cnccc2c2nc(-c3ccccc3F)nn12
-- reply 285 to 287 °C

-- ask Form field: reported melting point of O=C(Nc1ccc(O)cc1)c1c[nH]c2c1C(=O)CCCC2
-- reply 178 to 179 °C

-- ask Form field: reported melting point of CC12CCC(C(=O)O)=CC1=CCC1C2CCC2(C)C(C(=O)C3CCCCC3)CCC12 (configuration not stated)
-- reply 217 to 220 °C

-- ask Form field: reported melting point of O=c1c(-c2ccccc2)c(Cn2cnc3c(Cl)ncnc32)oc2ccc(Br)cc12
-- reply 234 to 236 °C

-- ask Form field: reported melting point of O=C(NCC(F)(F)F)C1(CCCCc2ccc(NS(=O)(=O)c3ccccc3[N+](=O)[O-])cc2)c2ccccc2-c2ccccc21
-- reply 60 to 64 °C

-- ask Form field: reported melting point of CCCCc1c2c(nc3cc(F)c(F)cc13)-c1cc3c(c(=O)n1C2)COC(=O)CC3(O)CC (configuration not stated)
-- reply > 275 °C

-- ask Form field: reported melting point of CC(=O)Nc1ccc2c(c1)C(=O)NC2=O
-- reply > 250 °C

-- ask Form field: reported melting point of N=c1sc2cc(OC(F)(F)F)ccc2n1CCS(=O)C1CCN(Cc2ccccc2)CC1 (configuration not stated)
-- reply 97 °C
